target or system: human B1R receptor (hB1R) (Homo sapiens)
Construct: host or cells: CHO K1 cells
Sequence (P46663 1-353): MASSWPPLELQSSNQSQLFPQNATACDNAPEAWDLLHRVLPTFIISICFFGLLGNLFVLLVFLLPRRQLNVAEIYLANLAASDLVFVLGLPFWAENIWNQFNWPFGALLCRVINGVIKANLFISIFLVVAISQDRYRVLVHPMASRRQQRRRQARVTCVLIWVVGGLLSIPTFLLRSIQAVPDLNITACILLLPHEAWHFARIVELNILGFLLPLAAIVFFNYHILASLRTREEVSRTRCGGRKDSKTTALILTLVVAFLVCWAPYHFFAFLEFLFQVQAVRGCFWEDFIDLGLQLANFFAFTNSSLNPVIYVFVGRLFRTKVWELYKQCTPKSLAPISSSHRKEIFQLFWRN
assay method text: FLIPR Ca2+ assay on hB1R-transfected CHO K1 cells, antagonistic action
Assay type: cell-based
settings: CHO-K1, 10 μM test substance; agonist Lys-Des-Arg9-bradykinin 0.5 nM; % of maximum achievable inhibition; read-out: hB1R [10 μM] % inhibition

molecule | unit string | inhibition at 10 µM
COc1cc(C)c(S(=O)(=O)N2CCCC(COCC(=O)N(C)CC3CCC(CCc4ccccc4)(N4CCN(C)CC4)CC3)C2)c(C)c1 (stereo not shown) [Compound 182] | % | 106
COc1cc(C)c(S(=O)(=O)N(C)CCOCC(=O)N2CCC(c3ccc(F)cc3)(N3CCN(C)CC3)CC2)c(C)c1 [Compound 42] | % | 105
Cc1cc(S(=O)(=O)N2CCCCC2CCC(=O)N(C)CCC2CCC(c3ccccc3)(N(C)C)CC2)c(C)cc1Cl (stereo not shown) [Compound 107] | % | 105
Cc1cc(S(=O)(=O)N2CCCCC2CCC(=O)N(C)CC2CCC(Cc3ccccc3)(N3CCCC3)CC2)c(C)cc1Cl (stereo not shown) [Compound 129] | % | 104
COc1cc(C)c(S(=O)(=O)N(C)CCOCC(=O)NC2CCC(Cc3ccccc3)(N3CCCCC3)CC2)c(C)c1 (stereo not shown) [Compound 17] | % | 86
COc1cc(C)c(S(=O)(=O)N2CCCC2COCC(=O)N(C)CC2CCC(CCc3ccccc3)(N3CCN(C)CC3)CC2)c(C)c1 (stereo not shown) [Compound 148] | % | 102
CN(CCC1CCC(Cc2ccccc2)(N2CCCC2)CC1)C(=O)COCC1CCc2ccccc2N1S(=O)(=O)c1ccc(Cl)c(Cl)c1 (stereo not shown) [Compound 104] | % | 60
COc1cc(C)c(S(=O)(=O)N2CCCCC2COCC(=O)N2CCC(c3ccc(F)cc3)(N3CCN(C)CC3)CC2)c(C)c1 (stereo not shown) [Compound 70] | % | 104
O=C(COCC1CCCN1S(=O)(=O)c1c(Cl)cc(Cl)cc1Cl)NC1CCC(c2ccccc2)(N2CCCC2)CC1 (stereo not shown) [Compound 146] | % | 64
CN1CCN(C2(Cc3ccccc3)CCC(CN(C)C(=O)COCCN(C)S(=O)(=O)c3c(Cl)cc(Cl)cc3Cl)CC2)CC1 (stereo not shown) [Compound 186] | % | 97
COc1cc(C)c(S(=O)(=O)N(C)CCOCC(=O)NCC2CCC(c3ccccc3)(N3CCOCC3)CC2)c(C)c1 (stereo not shown) [Compound 185] | % | 93
CN1CCN(C2(CCc3ccccc3)CCC(CN(C)C(=O)COCC3CCCN3S(=O)(=O)c3c(Cl)cc(Cl)cc3Cl)CC2)CC1 (stereo not shown) [Compound 172] | % | 98
O=C(CC1c2ccccc2CCN1S(=O)(=O)c1ccc(Cl)c(Cl)c1)NC1CCC(Cc2ccccc2)(N2CCCCC2)CC1 (stereo not shown) [Compound 15] | % | 55
COc1cc(C)c(S(=O)(=O)N2CCCCC2COCC(=O)N2CCC(Cc3ccccc3)(N3CCN(C)CC3)CC2)c(C)c1 (stereo not shown) [Compound 57] | % | 100
COc1cc(C)c(S(=O)(=O)N2CCCCC2COCC(=O)N(C)CCC2CCC(Cc3ccccc3)(N3CCCC3)CC2)c(C)c1 (stereo not shown) [Compound 68] | % | 103
COc1cc(C)c(S(=O)(=O)N(C)CCOCC(=O)N2CCC(N)(c3ccccc3)CC2)c(C)c1 [Compound 196] | % | 103
COc1cc(C)c(S(=O)(=O)N2CCCCC2CCCC(=O)N2CCC(c3cccc(F)c3)(N3CCN(C)CC3)CC2)c(C)c1 (stereo not shown) [Compound 214] | % | 99
COc1cc(C)c(S(=O)(=O)N2CCCCC2COCC(=O)NC2CCC(c3ccccc3)(N3CCOCC3)CC2)c(C)c1 (stereo not shown) [Compound 158] | % | 87
Cc1cc(S(=O)(=O)N2CCCCC2CCC(=O)N(C)CCC2CCC(c3ccccc3)(N3CCCC3)CC2)c(C)cc1Cl (stereo not shown) [Compound 139] | % | 105
